Reference source for all entries: ChEMBL document CHEMBL5303304

- Tested on: HEK-293T
- Experiment: Incucyte cell viability with HEK293T; note: unitless GR value; below 1 slowed growth and below 0 cell loss
- Type: toxicity, cell-based
- Test conditions: human, 6 h, 10 µM, compound concentration 10 uM, replicate number 1
Measured parameter: Growth Rate
The answer should be written as a number, with no unit following it.

Tell me measured Growth Rate for `CCN1C(=O)c2cc(C)ccc2N(C)c2ncccc21` please.
0.52

Tell me measured Growth Rate for `COCCNc1nc2ccc(C#CC3(O)CCCCC3)cc2n1-c1ccnc(N)n1` please.
0.37

Tell me measured Growth Rate for `COc1ccccc1-c1cc(Nc2cccc(CS(N)(=O)=O)c2)ncn1` please.
-0.26

Tell me measured Growth Rate for `CN(C)C(=O)Cn1cc(-c2nc([C@@](C)(c3ccc(-c4cnc(N)nc4)cc3)C3CC3)no2)cn1` please.
0.47

Tell me measured Growth Rate for `O=C(Nc1ccc(S(=O)(=O)Nc2nccs2)cc1)C(c1ccccc1)c1ccccc1` please.
0.94

Tell me measured Growth Rate for `CCc1ccc(N(CC(C)C)S(=O)(=O)c2ccc(OCC3CCOCC3)c(CO)c2)cc1` please.
0.86

Tell me measured Growth Rate for `Cl.O=C(O)CCCN1CCC[C@H]1COc1ccc(Oc2ccc(Cl)cc2)cc1` please.
0.64

Tell me measured Growth Rate for `CCc1c(-c2ccc3[nH]ncc3c2)cnc(N)c1-c1ccc(O)cc1` please.
0.85

Tell me measured Growth Rate for `COc1cc(F)ccc1-c1ncnc(Nc2cccc(C[S@](C)(=N)=O)c2)n1` please.
-0.48

Tell me measured Growth Rate for `COc1cc(-c2cncc(-c3cnn(C4CCNCC4)c3)c2)cc(OC)c1OC` please.
0.84

Tell me measured Growth Rate for Cc1nccn1CC1CCc2c(c3ccccc3n2C)C1=O.Cl (stereo not given) please.
0.82

Tell me measured Growth Rate for `C[C@@H](CN1CC[C@@]2(C)c3cccc(O)c3C[C@@H]1C2(C)C)OCc1ccccc1.Cl` please.
0.31

Tell me measured Growth Rate for OCC1OC(n2cnc3cc(Cl)c(Cl)cc32)C(O)C1O (stereo not given) please.
0.33

Tell me measured Growth Rate for `CCN1CCN(Cc2ccc(C(=O)Nc3ccc(C)c(Oc4ccc5c(c4)CC(=O)N5)c3)cc2C(F)(F)F)CC1.Cl.Cl` please.
-0.56

Tell me measured Growth Rate for `CNc1nc(-c2cc(C(=O)N3CCN(Cc4ccc(Cl)cc4)CC3)c(Cl)cn2)cs1` please.
0.91

Tell me measured Growth Rate for CN1CCN(c2ccnc(NCCc3ccccc3)n2)CC1 [TP-040n] please.
0.2

Tell me measured Growth Rate for `CN1C(=O)c2ccccc2N(C)c2nc(Nc3cnn(C4CCNCC4)c3)ncc21` please.
-0.59

Tell me measured Growth Rate for `N#CC[C@H](C1CCCC1)n1cc(-c2ncnc3[nH]ccc23)cn1` please.
0.27

Tell me measured Growth Rate for `CCN(CC)C/C=C/C(=O)Nc1cc2c(Nc3ccc(F)c(Cl)c3)ncnc2cc1OCC1CC1` please.
-0.54

Tell me measured Growth Rate for `Cc1cn([C@@H](C)CC#N)c(=O)c2cc(Cn3nc(C(F)F)cc3Cl)nn12` please.
0.53
